- study-system: T1, rat CRFBP C-terminally fused with a His6 sequence (rat), P24388
- T1 chain: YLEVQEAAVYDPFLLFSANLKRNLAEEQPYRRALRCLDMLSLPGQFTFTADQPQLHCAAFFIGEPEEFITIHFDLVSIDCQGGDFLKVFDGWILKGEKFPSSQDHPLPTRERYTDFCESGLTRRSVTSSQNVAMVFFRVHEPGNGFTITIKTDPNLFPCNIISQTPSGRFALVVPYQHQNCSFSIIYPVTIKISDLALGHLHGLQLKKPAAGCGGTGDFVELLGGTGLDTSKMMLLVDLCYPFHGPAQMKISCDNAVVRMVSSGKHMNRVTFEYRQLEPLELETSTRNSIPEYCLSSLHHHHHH
- test-method-notes: competition binding
- condition-summary: modification not given
assay-endpoint: IC50 (nM)
Reply with just the number (in nM).

Q) Which IC50 value belongs to SQEPPISLDLTFHLLREVLEMTKADQLAQQAHSNRKLLDIA [ovine corticotropin-releasing factor] ?
A) 450
